Listed next: entries and their corresponding mass density.
Experiment: xn = mol fraction of the nth substance listed
Settings: 298.15 K; 101.3 kPa; Liquid; x2 = 0.9002
Numbers only here, please. The scale is kg/m3.

Some molecules with known mass density results, for comparison:
Cc1ccc(C)c(C)c1 [1,2,4-trimethylbenzene] + CCCCO :: 815.1
Cc1cc(C)cc(C)c1 [1,3,5-trimethylbenzene] + CC(C)(C)O :: 789.58
Cc1cc(C)cc(C)c1 [1,3,5-trimethylbenzene] + CCC(C)O :: 809.42

Shifting focus to the molecule that follows.
# mass density of Cc1ccc(C)c(C)c1 [1,2,4-trimethylbenzene] + CCC(C)O = 811.21
